- target_or_test_system: hGIPR (Homo sapiens)
- Construct: expressed in transfected cells; host or cells: CHO cells carrying a CRE-luciferase reporter gene
- Sequence (P48546 22-466): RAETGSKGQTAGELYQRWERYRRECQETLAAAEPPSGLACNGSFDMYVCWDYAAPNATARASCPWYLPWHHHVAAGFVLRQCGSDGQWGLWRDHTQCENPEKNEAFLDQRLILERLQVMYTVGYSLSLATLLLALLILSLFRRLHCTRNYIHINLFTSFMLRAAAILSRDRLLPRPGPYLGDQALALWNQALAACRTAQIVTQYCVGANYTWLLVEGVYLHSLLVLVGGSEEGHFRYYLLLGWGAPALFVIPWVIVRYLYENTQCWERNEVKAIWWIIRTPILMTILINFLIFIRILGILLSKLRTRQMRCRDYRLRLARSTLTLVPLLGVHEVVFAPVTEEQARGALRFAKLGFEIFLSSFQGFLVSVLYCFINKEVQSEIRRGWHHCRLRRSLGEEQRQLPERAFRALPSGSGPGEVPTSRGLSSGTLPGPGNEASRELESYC
- assay_text: hGIPR CreLuc reporter gene assay in 0.5% and 100% plasma
- Format: cell-based
- experimental_setup: CreLuc reporter gene assay, 0.5% human plasma; read-out: hGIPR 0.5% hP
- Description: Example 1: hGLPR/hGIPR/hNPY2R CreLuc Assay in 0.5% and 100% Plasma CHO and HEK-293 recombinant cell lines express a luciferase reporter gene under control of the cAMP responsive element (CRE). […] Following incubation, assay plates are equilibrated to room temperature, followed by addition of 25 μl of Bright-GIo™ Luciferase reagent, incubation at room temperature for 10 minutes and analysis of luminescence (Envision Reader). […]
Starred links: 1 amine or outer side, 2 acyl side, 3 side chain; linkers in the order of their positions; H or OH if unused. Non-standard residues stand in square brackets, D forms with d. Groups on a side chain read outwards from the residue. *: point of attachment. C20 diacid = O=C(O)CCCCCCCCCCCCCCCCCCC(=O)*; C18 diacid = O=C(O)CCCCCCCCCCCCCCCCC(=O)*; γGlu = O=C(O)[C@H](CCC(=O)[*:2])N[*:1]; εLys = N[C@@H](CCCCN[*:1])C(=O)[*:2]; β3hQ = NC(=O)CC[C@H](N)CC(=O)O; Tle = CC(C)(C)[C@H](N)C(=O)O; AEEA = NCCOCCOCC(=O)O; Aib = CC(C)(N)C(=O)O
Assign EC50 to each entry below.
Give the quantity in nM, number only.

Tested on hGIPR (Homo sapiens): H-Y[Aib]EGTFTSDYSI[Aib]LEKQAQ[Aib]AFVQWLIK([AEEA-AEEA-γGlu-γGlu-γGlu-γGlu-γGlu-C20 diacid])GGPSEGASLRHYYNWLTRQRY-NH2 [Compound 228] . Observed EC50: 0.23

The value of EC50 recorded for H-Y[Aib]EGTFTSDYSI[Aib]LEEQAQ[Aib]AFVEWLIK([εLys-γGlu-γGlu-γGlu-γGlu-γGlu-γGlu-C20 diacid])GGPSSGQSLRHYYNWLTRQRY-NH2 [Compound 31] when tested on hGIPR (Homo sapiens) reads 0.15

Response field EC50 (hGIPR (Homo sapiens)) for item H-Y[Aib]EGTFTSDYSI[Aib]LEKQAQ[Aib]AFVEWLIK([εLys-γGlu-γGlu-γGlu-γGlu-γGlu-γGlu-C20 diacid])GGPSSGAS[Aib]RHYYNWLTRQR[dY]-NH2 [Compound 74] : 0.1

The substance H-Y[Aib]EGTFTSDYSI[Aib]LEKQAQ[Aib]AFVEWLIK([εLys-γGlu-γGlu-γGlu-γGlu-γGlu-γGlu-C20 diacid])GGPSSGASVRHYYNWLTRQRY-NH2 [Compound 117] , tested on hGIPR (Homo sapiens), showed EC50 of 0.14

Reported hGIPR (Homo sapiens) EC50 for item H-Y[Aib]EGTFTSDYSI[Aib]LEKQAQ[Aib]AFVEWLIK([εLys-γGlu-γGlu-γGlu-γGlu-γGlu-γGlu-C20 diacid])GGPSSGASLRHYYNLLTRQRY-NH2 [Compound 195] was 0.25

Item H-Y[Aib]EGTFTSDYSI[Aib]LEKQAQ[Aib]AFVQWLIK([AEEA-AEEA-γGlu-γGlu-γGlu-γGlu-γGlu-C20 diacid])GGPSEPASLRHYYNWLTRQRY-NH2 [Compound 111] ; assay system hGIPR (Homo sapiens); EC50 reported as 0.55

Observed EC50, hGIPR (Homo sapiens), H-Y[Aib]EGTFTSDYSI[Aib]LEKQAQ[Aib]AFVQWLIK([εLys-γGlu-γGlu-γGlu-γGlu-γGlu-γGlu-C20 diacid])GGPSEGASLRHYYNWLTR[β3hQ]RY-NH2 [Compound 186] : 0.11

Noted EC50 for H-Y[Aib]EGTFTSDYSI[Aib]LEKQAQ[Aib]AFVEWLIK([εLys-γGlu-γGlu-γGlu-γGlu-γGlu-γGlu-C20 diacid])GGPSSGASLRHYYNWLTRQR[Tle]-NH2 [Compound 191] , tested on hGIPR (Homo sapiens): 0.23

I looked up H-Y[Aib]EGTFTSDYSI[Aib]LEKQAE[Aib]AFVQWLIK([εLys-γGlu-γGlu-γGlu-γGlu-γGlu-C18 diacid])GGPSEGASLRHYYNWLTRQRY-NH2 [Compound 138] and its EC50 for hGIPR (Homo sapiens) was 0.13

Measured EC50 for this entry H-Y[Aib]EGTFTSDYSI[Aib]LEKQAQ[Aib]AFVQWLIK([εLys-γGlu-γGlu-γGlu-γGlu-γGlu-γGlu-C20 diacid])GGQRSYASLRHYYNWLTRQRY-NH2 [Compound 3] on hGIPR (Homo sapiens): 0.53
